Protocol summary: chemical genetic growth profiling, strain panel (AID 1159580);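 note: tested at 20 µM; growth read once vehicle control cultures reached saturation at 30 °C; 1 = growth at the plate median or of vehicle wells; lower values mean less growth of the strain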
Condition info: S. cerevisiae deletion strains, growth OD, locus YPL240C, strain hsp82, stronger effect = lower value
Hit rate of the full screen: of about 5,500 compounds, about 2,000 (36%) were called active. Roughly 18% stayed inconclusive and do not appear here. The list shows a part of the results.
Recorded endpoint: normalized growth
Kindly provide the number alone.

Prompt line: Fill in: normalized growth of `O=C(O)C1=CCCNC1` is ___
Response line: 0.992

Prompt line: Cool, now CC(C)CCCC(C)C1CCC2C3=CC[C@H]4C[C@@H](O)CC[C@]4(C)C3CC[C@@]21C (stereo partly specified)
Response line: 0.97

Prompt line: Cool, now CC(C)CCCC(C)[C@H]1CCC2C3CC=C4CC(=O)CC[C@]4(C)C3CC[C@@]21C (stereo partly specified)
Response line: 0.989

Prompt line: Cool, now `CN(C)CCCN1c2ccccc2Sc2ccc(Cl)cc21`
Response line: 0.0839

Prompt line: Cool, now `OC[C@H]1O[C@@H](O[C@@H]2[C@@H](CO)O[C@](O)(CO)[C@H]2O)[C@H](O)[C@@H](O)[C@H]1O`
Response line: 1.03

Prompt line: Cool, now `CC[N+](C)(C)c1cccc(O)c1`
Response line: 1.01

Prompt line: Cool, now COc1ccc(C2Sc3ccccc3N(CCN(C)C)C(=O)C2OC(C)=O)cc1 (stereo unspecified)
Response line: 0.972

Prompt line: Cool, now `Oc1cccc(O)c1`
Response line: 0.995

Prompt line: Cool, now CC12CCC3C(CC3(C)C)C(C)(CCC1=O)O2 (stereo unspecified)
Response line: 0.994

Prompt line: Cool, now CC1(C)CC2C1CC[C@]1(CBr)CCC3C(CC(=O)O)C(=O)O[C@@]32C1 (stereo partly specified)
Response line: 1.01

Prompt line: Cool, now `CC(C)(C)NC[C@H](O)c1ccc(O)c(CO)c1`
Response line: 1.02

Prompt line: Cool, now CC(CCC(=O)O)[C@H]1CCC2C3C(=O)C[C@@H]4CC(=O)CC[C@]4(C)C3CC(=O)[C@@]21C (stereo partly specified)
Response line: 1

Prompt line: Cool, now `OC[C@H]1O[C@@](CO)(O[C@@H]2O[C@H](CO)[C@@H](O)[C@H](O)[C@H]2O)[C@@H](O[C@@H]2O[C@H](CO)[C@@H](O)[C@H](O)[C@H]2O)[C@@H]1O`
Response line: 1.03

Prompt line: Cool, now `CC1=CC(=O)c2c(O)cccc2C1=O`
Response line: 0.0548

Prompt line: Cool, now C[C@H](CCC(=O)O)[C@H]1CCC2C3C(=O)CC4CC(=O)CC[C@]4(C)C3CC(=O)[C@@]21C (stereo partly specified)
Response line: 0.989

Prompt line: Cool, now `CS(=O)(=O)c1ccc([C@@H](O)[C@@H](CO)NC(=O)C(Cl)Cl)cc1`
Response line: 1.02

Prompt line: Cool, now `CN(C)CCCN1c2ccccc2CCc2ccccc21`
Response line: 1

Prompt line: Cool, now C/C=C\C1=C(C(=O)O)N2C(=O)C(NC(=O)C(N)c3ccc(O)cc3)C2SC1 (stereo unspecified)
Response line: 1.01

Prompt line: Cool, now CC(CCC(=O)O)[C@H]1CCC2C3CC[C@@H]4C[C@H](O)CC[C@]4(C)C3C=C[C@@]21C (stereo partly specified)
Response line: 0.997

Prompt line: Cool, now `CCCOc1ccc2nc(NC(=O)OC)[nH]c2c1`
Response line: 1.01

Prompt line: Cool, now CN1CCN(C(=O)OC2c3nccnc3C(=O)N2c2ccc(Cl)cn2)CC1 (stereo unspecified)
Response line: 1

Prompt line: Cool, now `CNCCCC12CCC(c3ccccc31)c1ccccc12`
Response line: 0.984

Prompt line: Cool, now `CN(C)CCCN1c2ccccc2Sc2ccc(C(F)(F)F)cc21`
Response line: 1.03

Prompt line: Cool, now `C/C1=C/CC(C)(C)/C=C/C/C(C)=C/CC1`
Response line: 1.02

Prompt line: Cool, now `CN[C@@H]1[C@H](O)[C@H](NC)[C@H]2O[C@@]3(O)C(=O)C[C@@H](C)O[C@H]3O[C@@H]2[C@H]1O`
Response line: 0.995

Prompt line: Cool, now `COc1cc(C/C=C/c2ccccc2)c(OC)cc1O`
Response line: 0.963

Prompt line: Cool, now CC(C)CCCC(C)[C@H]1CCC2C3CC=C4C[C@@H](O)CC[C@]4(C)C3CC[C@@]21C (stereo partly specified)
Response line: 0.985

Prompt line: Cool, now O=P1(N(CCCl)CCCl)NCCCO1 (stereo unspecified)
Response line: 1

Prompt line: Cool, now `CC(=O)Nc1ccc(S(=O)(=O)Nc2onc(C)c2C)cc1`
Response line: 0.99

Prompt line: Cool, now `O=C(O)c1cc(O)c2c(c1)[C@@H]([C@H]1c3cc(C(=O)O)cc(O)c3C(=O)c3c(O[C@H]4O[C@H](CO)[C@@H](O)[C@H](O)[C@H]4O)cccc31)c1cccc(O[C@H]3O[C@H](CO)[C@@H](O)[C@H](O)[C@H]3O)c1C2=O`
Response line: 0.993

Prompt line: Cool, now `CC(=O)N[C@@H](Cc1c[nH]c2ccccc12)C(N)=O`
Response line: 1.02
